The values you see were collected from ChEMBL document CHEMBL1153905.

Assay: Cytotoxicity against mouse Hepa-1c1c7 cells after 48 hrs by MTT assay
Format: cell-based
Settings: hepa-1c1c7, 48 h
Measured Quantity: IC50

Use these answered entries as a reference point.
- Molecule: "O=C1Nc2ccccc2/C1=C\\c1cccc2ccccc12"
  IC50: "18.6 µM"
- Molecule: "O=C1Nc2ccccc2/C1=C\\c1ccc(C(F)(F)F)cc1"
  IC50: "12 µM"
- Molecule: "COc1ccc(/C=C2/C(=O)Nc3ccccc32)c(O)c1"
  IC50: "> 25 µM"
- Molecule: "O=C1Nc2ccccc2/C1=C\\c1ccc(F)cc1Cl"
  IC50: "> 25 µM"
- Molecule: "O=C1Nc2cc(C(F)(F)F)ccc2/C1=C1\\C(=O)Nc2ccc(Cl)cc21"
  IC50: "9.8 µM"
- Molecule: "O=C1Nc2ccccc2/C1=C\\c1cc(O)ccc1O"
  IC50: "> 25 µM"
- Molecule: "COc1ccc(/C=C2/C(=O)Nc3cc(Cl)ccc32)cc1O"
  IC50: "> 25 µM"
- Molecule: "O=C1Nc2cc(C(F)(F)F)ccc2/C1=C1\\C(=O)Nc2ccc(F)cc21"
  IC50: "> 25 µM"
- Molecule: "O=C1Nc2ccccc2/C1=C\\c1ccccc1"
  IC50: "> 25 µM"
- Molecule: "Cc1cccc(/C=C2/C(=O)Nc3ccccc32)c1"
  IC50: "> 25 µM"

Hey, quick one: what's IC50 for each of these?
1. COc1cccc(/C=C2/C(=O)Nc3cc(OC)ccc32)c1
2. Cc1ccc(CC2C(=O)Nc3ccccc32)cc1 (stereo not drawn)

1: 9.8 µM; 2: > 25 µM

Field request: IC50 | item: `O=C1Nc2ccccc2/C1=C\c1cccc(Cl)c1`
5.9 µM
